Target chain: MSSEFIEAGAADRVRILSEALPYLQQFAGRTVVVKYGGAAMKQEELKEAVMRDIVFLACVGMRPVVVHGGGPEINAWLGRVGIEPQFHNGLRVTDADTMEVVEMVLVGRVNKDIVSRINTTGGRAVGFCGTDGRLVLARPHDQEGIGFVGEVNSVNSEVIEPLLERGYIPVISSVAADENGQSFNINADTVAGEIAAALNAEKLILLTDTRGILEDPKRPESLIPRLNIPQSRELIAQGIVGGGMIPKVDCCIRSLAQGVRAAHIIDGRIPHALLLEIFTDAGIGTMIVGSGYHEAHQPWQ
VALUE TYPE: pIC50
// pIC50 is dimensionless: -log10 of concentration (M)

Q) Bench note: what pIC50 did N=C(N)NCCC[C@H](N)C(=O)O [arginine] show?
A) 4.96
